Molecular target: Cellular tumor antigen p53 (Homo sapiens) (UniProt P04637)
Sequence (P04637 whole entry, looked up): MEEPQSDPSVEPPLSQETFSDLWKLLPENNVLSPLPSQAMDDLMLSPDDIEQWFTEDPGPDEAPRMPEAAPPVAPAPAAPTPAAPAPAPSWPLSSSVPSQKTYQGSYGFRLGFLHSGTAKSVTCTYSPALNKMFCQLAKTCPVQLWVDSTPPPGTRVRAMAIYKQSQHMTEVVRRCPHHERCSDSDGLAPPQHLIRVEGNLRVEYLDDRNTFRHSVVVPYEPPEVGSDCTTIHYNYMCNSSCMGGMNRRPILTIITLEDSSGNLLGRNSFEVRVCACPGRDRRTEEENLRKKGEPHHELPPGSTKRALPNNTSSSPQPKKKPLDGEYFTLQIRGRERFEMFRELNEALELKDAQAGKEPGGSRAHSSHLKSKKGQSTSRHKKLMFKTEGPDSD
Assay: ATG_p53_CIS: Attagene CIS-FACTORIAL HepG2 Assay for human p53 Transcription Factor (AID 2282994)
Details: HepG2 p53 cis-element reporter, Attagene mRNA; actives raise or lower the signal
Activity calls are given as the source filed them. Rule for the calls: active = hit-call score of the fitted dose curve at least 0.9, where 1 is the maximum; inactive = score below 0.9.
Outcome codes: Y for active, N for inactive

compound=Nc1nc2ncc(CNc3ccc(C(=O)N[C@@H](CCC(=O)O)C(=O)O)cc3)nc2c(=O)[nH]1 qualitativelabel=N
compound=C1=CCCC=CCCC=CCC1 qualitativelabel=N
compound=CC(=O)OC[C@H]1O[C@@](COC(C)=O)(O[C@H]2O[C@H](COC(C)=O)[C@@H](OC(C)=O)[C@H](OC(C)=O)[C@H]2OC(C)=O)[C@@H](OC(C)=O)[C@@H]1OC(C)=O qualitativelabel=N
compound="O=C(O)CC(O)C(=O)O (centres undefined)" qualitativelabel=N
compound=COC(=O)c1ccccc1O qualitativelabel=N
compound=CC(C)=CCCC(C)=CC=O qualitativelabel=N
compound=CCc1cc(SCc2sc(-c3ccc(C(F)(F)F)cc3)nc2CN2CCN(c3ccc(OC)cc3)CC2)ccc1OCC(=O)O qualitativelabel=N
compound=C=CCCCCCCCCC(=O)O qualitativelabel=N
compound=CCCCCCCCCCCCc1ccccc1 qualitativelabel=N
compound=O=C(NS(=O)(=O)/C=C/c1ccccc1)c1ccc(F)cc1Cl qualitativelabel=N
compound=CC[C@H](C)C(=O)O[C@H]1C[C@@H](C)C=C2C=C[C@H](C)[C@H](CC[C@@H]3C[C@@H](O)CC(=O)O3)[C@H]21 qualitativelabel=N
compound=Cc1ccc(C)c(O)c1 qualitativelabel=N
compound=CC(C)=CCC/C(C)=C\CO qualitativelabel=N
compound=CCOCCOCCOCCO qualitativelabel=N
compound=C1N2CN3CN1CN(C2)C3 qualitativelabel=N
compound="CC(C)=CCCC(C)CCO (centres undefined)" qualitativelabel=N
compound=C=CC(=C)CCC=C(C)C qualitativelabel=N
compound="CNS(=O)(=O)c1cc(C(=O)N2CCC(CCN3C4CCC3CC(n3c(C)nc5ccccc53)C4)(c3cccc(F)c3)CC2)c(Cl)cc1F (centres undefined)" qualitativelabel=Y
compound=O=C(CCCCCCCCc1cccnc1)N1CCC(C=C(c2ccccc2)c2ccccc2)CC1 qualitativelabel=Y
compound=Nc1cccc(N)c1 qualitativelabel=N
compound="CCCCC(CC)COC(=O)c1ccc(C(=O)OCC(CC)CCCC)cc1 (centres undefined)" qualitativelabel=N
compound=CC(=O)OCCC(C)C qualitativelabel=N
compound=COC(=O)c1c(Cl)c(Cl)c(C(=O)OC)c(Cl)c1Cl qualitativelabel=N
compound=COC(=O)CC(=O)OC qualitativelabel=N
compound=Cn1c(=O)c2c(ncn2C)n(C)c1=O qualitativelabel=N
compound=CCOC(=O)CC(CC(=O)OCC)(OC(C)=O)C(=O)OCC qualitativelabel=N
compound="CC/C(=C\\C(=N/O)C(N)=O)C(C)[N+](=O)[O-] (centres undefined)" qualitativelabel=N
compound=O=C(O)c1cccc(Oc2ccccc2)c1 qualitativelabel=N
compound=CC[C@H]1CC[C@H](NCc2cc3c(cc2OC)[C@H]2C[C@H]2C(=O)N3C)[C@H](c2ccccc2)N1 qualitativelabel=Y
compound=CNCc1ccc(NC(=O)c2c[nH]c3c2C(=O)CCC3)cc1 qualitativelabel=N
compound=O=P(OC(CCl)CCl)(OC(CCl)CCl)OC(CCl)CCl qualitativelabel=Y
compound=Cn1cnc([N+](=O)[O-])c1Sc1ncnc2nc[nH]c12 qualitativelabel=N
compound=CCCCCCc1ccc(O)cc1O qualitativelabel=N
compound="CCCCC(CC)COC(=O)CCCCCCCCC(=O)OCC(CC)CCCC (centres undefined)" qualitativelabel=N
compound=CCCCCCCCO qualitativelabel=N
compound=O=C(OC[C@H]1O[C@@H](OC(=O)c2cc(O)c(O)c(OC(=O)c3cc(O)c(O)c(O)c3)c2)[C@H](OC(=O)c2cc(O)c(O)c(OC(=O)c3cc(O)c(O)c(O)c3)c2)[C@@H](OC(=O)c2cc(O)c(O)c(OC(=O)c3cc(O)c(O)c(O)c3)c2)[C@@H]1OC(=O)c1cc(O)c(O)c(OC(=O)c2cc(O)c(O)c(O)c2)c1)c1cc(O)c(O)c(OC(=O)c2cc(O)c(O)c(O)c2)c1 qualitativelabel=N
compound=O=C1CCCCCN1 qualitativelabel=N
compound=CCNc1ccccc1 qualitativelabel=N
compound=NC(=O)NO qualitativelabel=N

The origin of these recorded values is PubChem BioAssay (EPA / NIEHS).
